Test system Sodium-dependent dopamine transporter (Rattus norvegicus, UniProt P23977), pKi listed for each of the molecules.
// returns pKi (minus log10 of molar concentration), number only

(Q) Looking for the measured pKi of CN1CCC(c2ccc(Cl)cc2)[C@H](C(=O)O)C1 (some centres not stated) , can you help?
(A) 6.56

(Q) Now the same for CN1CCC(c2ccc(Cl)cc2)[C@@H](C(=O)O)C1 (stereo partly drawn) [cis-CPCA, -]
(A) 7.17

====

molecular target: Sodium-dependent serotonin transporter (Rattus norvegicus)
Sequence (P31652 whole entry): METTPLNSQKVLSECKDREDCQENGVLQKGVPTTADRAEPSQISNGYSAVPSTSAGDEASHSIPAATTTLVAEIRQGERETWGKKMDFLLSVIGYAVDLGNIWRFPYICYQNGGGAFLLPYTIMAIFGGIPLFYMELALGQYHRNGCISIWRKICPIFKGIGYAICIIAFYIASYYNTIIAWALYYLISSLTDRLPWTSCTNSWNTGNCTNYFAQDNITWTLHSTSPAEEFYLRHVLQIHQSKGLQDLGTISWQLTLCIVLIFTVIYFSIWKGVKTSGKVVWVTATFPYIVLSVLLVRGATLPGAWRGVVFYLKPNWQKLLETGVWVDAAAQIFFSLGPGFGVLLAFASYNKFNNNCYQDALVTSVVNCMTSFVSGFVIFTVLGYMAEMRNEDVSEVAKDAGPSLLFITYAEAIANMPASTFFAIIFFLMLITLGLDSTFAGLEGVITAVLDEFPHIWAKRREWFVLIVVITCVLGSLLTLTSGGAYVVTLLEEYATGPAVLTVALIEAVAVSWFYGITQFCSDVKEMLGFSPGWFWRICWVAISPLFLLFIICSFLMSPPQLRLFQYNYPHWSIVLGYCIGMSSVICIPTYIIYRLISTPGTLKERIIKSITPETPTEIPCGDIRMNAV
quantityKind: pKi
// returns pKi (minus log10 of molar concentration), number only

(Q) Looking for the measured pKi of CN1CCC(c2ccc(Cl)cc2)[C@H](C(=O)O)C1 (stereo partly specified) , can you help?
(A) 5.23
